- TARGET OR SYSTEM: human Tissue Factor (TF) (human, UniProt P13726 33-295)
- PROTOCOL NOTES: cell-based or functional assay
Assign % IL8 at 2.56 nM antibody to each entry below.
# value in %; strip the unit string

Task: // query % IL8 at 2.56 nM antibody value for entry 54E (antibody, human IgG1, V domains shown, Human IgG1; also called antibody designated 54E) VH: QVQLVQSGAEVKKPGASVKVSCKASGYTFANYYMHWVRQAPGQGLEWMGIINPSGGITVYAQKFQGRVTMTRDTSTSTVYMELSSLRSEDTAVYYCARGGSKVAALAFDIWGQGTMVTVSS VL: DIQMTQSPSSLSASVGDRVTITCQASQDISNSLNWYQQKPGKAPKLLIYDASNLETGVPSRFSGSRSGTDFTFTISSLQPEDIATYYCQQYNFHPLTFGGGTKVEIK
Output: 48

Task: // query % IL8 at 2.56 nM antibody value for entry 43D (antibody, human IgG1, V domains shown) VH: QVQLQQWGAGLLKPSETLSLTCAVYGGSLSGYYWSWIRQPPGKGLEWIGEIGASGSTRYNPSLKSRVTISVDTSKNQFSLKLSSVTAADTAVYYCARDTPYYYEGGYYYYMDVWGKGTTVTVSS VL: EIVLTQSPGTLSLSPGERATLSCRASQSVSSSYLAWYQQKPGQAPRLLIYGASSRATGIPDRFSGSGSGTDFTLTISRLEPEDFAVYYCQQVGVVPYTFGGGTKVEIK
Output: 58

Task: // query % IL8 at 2.56 nM antibody value for entry 25A (antibody, human IgG1, V domains shown, Human IgG1; also called antibody designated 25A; Antibody Clone 25A) VH: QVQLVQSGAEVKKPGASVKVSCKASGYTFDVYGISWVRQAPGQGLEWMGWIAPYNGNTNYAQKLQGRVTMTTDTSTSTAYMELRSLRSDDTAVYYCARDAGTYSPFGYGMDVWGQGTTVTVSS VL: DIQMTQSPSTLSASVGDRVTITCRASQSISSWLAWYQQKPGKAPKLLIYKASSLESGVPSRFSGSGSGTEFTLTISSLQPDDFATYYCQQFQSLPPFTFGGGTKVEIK
Output: 43

Task: // query % IL8 at 2.56 nM antibody value for entry 25G (antibody, human IgG1, V domains shown, Human IgG1; also called antibody designated 25G) VH: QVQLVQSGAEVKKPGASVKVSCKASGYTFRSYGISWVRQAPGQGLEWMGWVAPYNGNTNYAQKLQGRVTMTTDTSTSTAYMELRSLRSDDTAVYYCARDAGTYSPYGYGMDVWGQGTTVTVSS VL: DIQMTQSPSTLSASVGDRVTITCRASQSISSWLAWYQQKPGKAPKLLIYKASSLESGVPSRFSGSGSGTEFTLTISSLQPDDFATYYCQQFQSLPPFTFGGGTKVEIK
Output: 60

Task: // query % IL8 at 2.56 nM antibody value for entry 43B (antibody, human IgG1, V domains shown) VH: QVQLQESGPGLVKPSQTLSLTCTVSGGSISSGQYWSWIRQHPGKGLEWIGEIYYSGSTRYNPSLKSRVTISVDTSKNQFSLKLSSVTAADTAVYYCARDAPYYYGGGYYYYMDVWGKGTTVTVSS VL: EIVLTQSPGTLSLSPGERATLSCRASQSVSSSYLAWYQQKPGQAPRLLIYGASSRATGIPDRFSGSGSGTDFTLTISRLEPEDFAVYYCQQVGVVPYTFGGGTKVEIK
Output: 50
